tested on: HeLa Kyoto; assay: solubility in G1/S (NP-40 vs SDS abundance) (log2 ratio); higher = more soluble; conditions: cell cycle stage: G1/S
Parameter solubility in G1/S (log2): see the listing below.
Please give only the number in your answer, with no unit.

# chain-sequence, solubility in G1/S (log2)
records = [
    ("MKGSRIELGDVTPHNIKQLKRLNQVIFPVSYNDKFYKDVLEVGELAKLAYFNDIAVGAVCCRVDHSQNQKRLYIMTLGCLAPYRRLGIGTKMLNHVLNICEKDGTFDNIYLHVQISNESAIDFYRKFGFEIIETKKNYYKRIEPADAHVLQKNLKVPSGQNADVQKTDN [NAA50]", 0.325),
]

The record that follows has no solubility in G1/S (log2) shown yet.
**Query** Please tell me: solubility in G1/S (log2) of MKEGRGSFSVERGPRKERETAQSGMWKGNSPAGSQGAAMEGTGGELGGQGNWGPEDAPGLLARASLIMLPWPLPLASSALTLLFGALTSLFLWYCYRLGSQDMQALGAGSRAGGVRGGPVGCSEAGGPSPGGPGDPGEGPRTEGLVSRRLRAYARRYSWAGMGRVRRAAQGGPGPGRGPGVLGIQRPGLLFLPDLPSAPFVPRDAQRHDVELLESSFPAILRDFGAVSWDFSGTTPPPRGWSPPLAPGCYQLLLYQAGRCQPSNCRRCPGAYRALRGLRSFMSANTFGNAGFSVLLPGARLEGRCGPTNARVRCHLGLKIPPGCELVVGGEPQCWAEGHCLLVDDSFLHTVAHNGSPEDGPRVVFIVDLWHPNVAGAERQALDFVFAPDP [ASPHD1] , system HeLa Kyoto?
**Result** 0.213

----------
Parameter melting temperature: see the listing below.
system: HeLa Kyoto; test: melting temperature (median over replicates), in situ; higher = more thermally stable; conditions: cell cycle stage: G1/S
Write the figure, then the unit, nothing else.

# chain-sequence, melting temperature
records = [
    ("MIEAEEQQPCKTDFYSELPKVELHAHLNGSISSHTMKKLIAQKPDLKIHDQMTVIDKGKKRTLEECFQMFQTIHQLTSSPEDILMVTKDVIKEFADDGVKYLELRSTPRRENATGMTKKTYVESILEGIKQSKQENLDIDVRYLIAVDRRGGPLVAKETVKLAEEFFLSTEGTVLGLDLSGDPTVGQAKDFLEPLLEAKKAGLKLALHLSEIPNQKKETQILLDLLPDRIGHGTFLNSGEGGSLDLVDFVRQHRIPLELCLTSNVKSQTVPSYDQHHFGFWYSIAHPSVICTDDKGVFATHLSQEYQLAAETFNLTQSQVWDLSYESINYIFASDSTRSELRKKWNHLKPRVLHI [ADAL]", "57.1 °C"),
    ("MSPARRCRGMRAAVAASVGLSEGPAGSRSGRLFRPPSPAPAAPGARLLRLPGSGAVQAASPERAGWTEALRAAVAELRAGAVVAVPTDTLYGLACAASCSAALRAVYRLKGRSEAKPLAVCLGRVADVYRYCRVRVPEGLLKDLLPGPVTLVMERSEELNKDLNPFTPLVGIRIPDHAFMQDLAQMFEGPLALTSANLSSQASSLNVEEFQDLWPQLSLVIDGGQIGDGQSPECRLGSTVVDLSVPGKFGIIRPGCALESTTAILQQKYGLLPSHASYL [YRDC]", "52.3 °C"),
    ("MDMLDPGLDPAASATAAAAASHDKGPEAEEGVELQEGGDGPGAEEQTAVAITSVQQAAFGDHNIQYQFRTETNGGQVTYRVVQVTDGQLDGQGDTAGAVSVVSTAAFAGGQQAVTQVGVDGAAQRPGPAAASVPPGPAAPFPLAVIQNPFSNGGSPAAEAVSGEARFAYFPASSVGDTTAVSVQTTDQSLQAGGQFYVMMTPQDVLQTGTQRTIAPRTHPYSPKIDGTRTPRDERRRAQHNEVERRRRDKINNWIVQLSKIIPDCNADNSKTGASKGGILSKACDYIRELRQTNQRMQETFKEAERLQMDNELLRQQIEELKNENALLRAQLQQHNLEMVGEGTRQ [USF2]", "54 °C"),
]

**Query** I'd like to know its melting temperature. The sequence in question is MGRLDGKVIILTAAAQGIGQAAALAFAREGAKVIATDINESKLQELEKYPGIQTRVLDVTKKKQIDQFANEVERLDVLFNVAGFVHHGTVLDCEEKDWDFSMNLNVRSMYLMIKAFLPKMLAQKSGNIINMSSVASSVKGVVNRCVYSTTKAAVIGLTKSVAADFIQQGIRCNCVCPGTVDTPSLQERIQARGNPEEARNDFLKRQKTGRFATAEEIAMLCVYLASDESAYVTGNPVIIDGGWSL [BDH2]
**Result** 51.4 °C

**Query** How about this sequence: MDAAEVEFLAEKELVTIIPNFSLDKIYLIGGDLGPFNPGLPVEVPLWLAINLKQRQKCRLLPPEWMDVEKLEKMRDHERKEETFTPMPSPYYMELTKLLLNHASDNIPKADEIRTLVKDMWDTRIAKLRVSADSFVRQQEAHAKLDNLTLMEINTSGTFLTQALNHMYKLRTNLQPLESTQSQDF [GINS2]
**Result** 50.9 °C

**Query** How about this sequence: MALRELKVCLLGDTGVGKSSIVWRFVEDSFDPNINPTIGASFMTKTVQYQNELHKFLIWDTAGQERFRALAPMYYRGSAAAIIVYDITKEETFSTLKNWVKELRQHGPPNIVVAIAGNKCDLIDVREVMERDAKDYADSIHAIFVETSAKNAININELFIEISRRIPSTDANLPSGGKGFKLRRQPSEPKRSCC [RAB22A]
**Result** 54.8 °C

Data origin: the supplement of paper PMC5998384
